Value source: patent US10647690B2

Measured log10(IC50) values are reported for all entries that follow.
MEASUREMENT TARGET: Cathepsin S (Homo sapiens, UniProt P25774)
Construct: purchased Biovision K149-100
Sequence (P25774 115-331): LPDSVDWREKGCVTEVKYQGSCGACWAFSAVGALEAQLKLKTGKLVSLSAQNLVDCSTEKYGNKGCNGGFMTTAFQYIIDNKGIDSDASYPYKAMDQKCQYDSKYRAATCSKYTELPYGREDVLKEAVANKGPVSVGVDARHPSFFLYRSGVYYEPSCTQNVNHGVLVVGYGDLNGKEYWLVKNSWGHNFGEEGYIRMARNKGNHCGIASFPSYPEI
ASSAY NOTES: IC50 determination against Cathepsin S (Biovision kit K149-100)
Assay type: biochemical
MEASUREMENT SETUP: CTSS; Exp-1; read-out: IC50 (nM) Exp-1
MEASURED ATTRIBUTE: log10(IC50) (log10 of the value in nM)

COMPOUND	log10(IC50)
CCCCCCNC(=O)[C@H](CCSC)NC(=O)[C@H]1O[C@@H]1C(=O)OCC	3.61
CCCNC(=O)[C@H]1O[C@@H]1C(=O)N[C@H](C(=O)N1CCC[C@H]1C(=O)O)[C@@H](C)CC [zxy-60, CA-074, reference compound]	3.55
CCOC(=O)[C@H]1O[C@@H]1C(=O)N[C@@H](CCSC)C(=O)NCCc1cccc(F)c1	3.20
CCOC(=O)[C@H]1O[C@@H]1C(=O)N[C@@H](CC(C)C)C(=O)NCCC(C)C [zxy-37, E64d, reference compound]	2.88
CCOC(=O)[C@H]1O[C@@H]1C(=O)N[C@@H](CCSC)C(=O)NC(CC)CC	3.71
CCOC(=O)[C@H]1O[C@@H]1C(=O)N[C@@H](CCSC)C(=O)NCCCc1ccccc1	4.03
CCOC(=O)[C@H]1O[C@@H]1C(=O)N[C@@H](CCSC)C(=O)N1CCC(c2ccccc2)CC1	3.28
CCOC(=O)[C@H]1O[C@@H]1C(=O)N[C@@H](CCSC)C(=O)NCCCCc1ccccc1	2.92
